Tested on: A549/ATCC NSCLC
method-summary: NCI-60 one-dose screen, 48 h (100 = growth as untreated, 0 = no growth, -100 = all killed)
assay-context: 10 µM unless noted
About 83,000 compounds went through this panel and 20% of them were active in at least one assay; those are over-represented in the sample as a whole.
measure: growth (%)
Numbers only, in %.

The value of growth recorded for CC(=O)Oc1csc(N(C(C)=O)c2cccc(C(F)(F)F)c2)n1 when tested on A549/ATCC NSCLC reads 92.3

The value of growth recorded for O=[N+]([O-])c1ccc(OCCCOc2ccccc2)cc1 when tested on A549/ATCC NSCLC reads 92.4

The value of growth recorded for COc1ccc(/C=C(\C#N)c2cc(OC)c3c(c2)OCO3)cc1 when tested on A549/ATCC NSCLC reads 15.4

Dear colleague, could you send me growth for each of the items below? Thanks.
1. COc1ccc(CN2CCc3c(Sc4ccccc4)nc(N)nc3C2=O)c(OC)c1
2. COc1ccccc1CNCCCN1C(=O)c2ccc3c4c(ccc(c24)C1=O)C(=O)N(CCCNCCCCNCCCN)C3=O
3. COc1ccc(C(=O)N2NC(=O)/C(=C/c3cn(-c4ccccc4)nc3-c3ccccc3)N=C2c2ccccc2)cc1
4. CCCCOc1ccc(/C=C2/SC(N3CCOCC3)=NC2=O)cc1OCC
5. COc1ccc2c(c1)[nH]c(=O)c1c3cccc(F)c3cn21

1. 60.5
2. -48.2
3. 91.6
4. 96
5. 12.1

Dear colleague, could you send me growth for each of the items below? Thanks.
1. COc1ccc(NC(=O)c2c(Nc3ccc(OC)cc3OC)n[nH]c2N)c(OC)c1
2. O=C(Nc1cccc(-n2cc(-c3ccncc3)c(-c3ccc(Cl)c(O)c3)n2)c1)c1ccccc1
3. CCOC(=O)CC(=O)OC
4. C=C1C(=O)O[C@@H]2[C@@H]3O[C@@](C)(CC/C=C(\C)CCC[C@@H]2C)[C@H](O)C[C@@H]13

96.8
52.6
101
95.3

Dear colleague, could you send me growth for each of the items below? Thanks.
1. CCN(CC)CCC(CNc1ccnc2cc(Cl)ccc12)c1ccccc1 (stereo unspecified)
2. COc1ccc(-c2c(N)n[nH]c2-c2cc(OC)c3c(c2)OCCO3)cc1
3. CCOC(=O)c1c(NS(=O)(=O)c2ccc(C)cc2)sc2c1CCC1(C2)OCCO1
4. C=CCn1c2ccccc2c2c3c(c4c5ccccc5n(CC=C)c4c21)C(=O)N(O)C3=O
5. O=C(CSc1nc2ccccc2[nH]1)c1ccc(N2CCOCC2)cc1
6. OCc1ncc(-c2ccccc2)s1
7. CN1CCN(Cc2ccc(NC(=O)c3cncc(C#Cc4cnc(N)c5cnccc45)c3)cc2C(F)(F)F)CC1

70.4
56
103
37.7
102
110
20

Dear colleague, could you send me growth for each of the items below? Thanks.
1. COC(=O)c1cccc2c1N(C)c1c(cccc1C(=O)OC)CC2
2. CCOC(=O)c1cn2c3c(cc(C)cc3c1=O)C(=O)/C(=C/c1ccccc1)C2

[112, 89.1]
